Tested on: Staphylococcus epidermidis
Experiment: Bactericidal activity against methicillin-resistant Staphylococcus epidermidis isolate 422/10 after 24 hrs
Format: functional
Conditions: isolate 422/10, 24 h, read-out: MBC99.9
// reported MBC per item
The reply should be a number in µg/mL, with the unit left off.

CC[C@@H](C(=O)[C@@H](C)[C@@H](O)[C@H](C)[C@@H]1O[C@@H]([C@@H](CC)C(=O)N(Cc2ccccc2)Cc2ccccc2)CC[C@@H]1C)[C@H]1O[C@]2(C=C[C@@H](O)[C@]3(CC[C@@](C)([C@H]4CC[C@](O)(CC)[C@H](C)O4)O3)O2)[C@H](C)C[C@@H]1C	256
CCCN(CCC)C(=O)[C@H](CC)[C@H]1CC[C@H](C)[C@H]([C@@H](C)[C@H](O)[C@H](C)C(=O)[C@H](CC)[C@H]2O[C@]3(C=C[C@@H](O)[C@]4(CC[C@@](C)([C@H]5CC[C@](O)(CC)[C@H](C)O5)O4)O3)[C@H](C)C[C@@H]2C)O1	128

Could you now look at the following compound, please?
Look up MBC with Staphylococcus epidermidis for this compound: "CC[C@@H](C(=O)[C@@H](C)[C@@H](O)[C@H](C)[C@@H]1O[C@@H]([C@@H](CC)C(=O)N(CCO)CCO)CC[C@@H]1C)[C@H]1O[C@]2(C=C[C@@H](O)[C@]3(CC[C@@](C)([C@H]4CC[C@](O)(CC)[C@H](C)O4)O3)O2)[C@H](C)C[C@@H]1C" 128
